- MEASUREMENT_TARGET: KRAS G13C (Homo sapiens (Human), UniProt P01116+P62937, G13C)
- Sequence (P01116 other isoform, or with tags, fused parts or gaps G13C, one chain of several): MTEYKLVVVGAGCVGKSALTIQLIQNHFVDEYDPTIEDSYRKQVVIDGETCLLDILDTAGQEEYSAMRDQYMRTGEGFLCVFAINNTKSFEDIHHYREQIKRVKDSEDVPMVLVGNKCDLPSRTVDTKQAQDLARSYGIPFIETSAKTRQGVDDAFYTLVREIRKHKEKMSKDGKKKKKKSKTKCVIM
- METHOD_NOTES: Ras-Raf disruption/FRET/MOA assay (BRAF RBD, Cyclophilin A)
- Type: biochemical
- TEST_CONTEXT: read-out: KRAS G13C FRET IC50
pIC50: −log10 of the molar value.
MEASURED_QUANTITY: pIC50

See these solved cases before continuing.
>>> measured_value("CCn1c(-c2cccnc2[C@H](C)OC)c2c3cc(ccc31)-c1cc(O)cc(c1)C[C@H](NC(=O)[C@H](C(C)C)N(C)C(=O)C1(F)CC1)C(=O)N1CCC[C@H](N1)C(=O)OCC(C)(C)C2")
"7.00 to 8.00"
>>> measured_value("CCn1c(-c2cccnc2[C@H](C)OC)c2c3cc(ccc31)-c1csc(n1)C[C@H](NC(=O)[C@H](C(C)C)N(C)C(=O)N1CC(N(C)C(C)C)C1)C(=O)N1CCC[C@H](N1)C(=O)OCC(C)(C)C2")
"6.00 to 7.00"
>>> measured_value("CCn1c(-c2cc(N3CCN(C)CC3)cnc2[C@H](C)OC)c2c3cc(ccc31)-c1csc(n1)C[C@H](NC(=O)[C@H](C(C)C)N(C)C(=O)[C@@H]1OCC[C@@H]1c1cccnc1)C(=O)N1CCC[C@H](N1)C(=O)OCC(C)(C)C2")
"6.00 to 7.00"

For the next question, use this compound.
Enquiry: What value of measured pIC50 is listed for `CCn1c(-c2cccnc2[C@H](C)OC)c2c3cc(ccc31)-c1cccc(c1)C[C@H](NC(=O)[C@H](C(C)C)N(C)C(=O)[C@H]1CCNC1)C(=O)N1CCC[C@H](N1)C(=O)OCC(C)(C)C2` ?
Return: 6.00 to 7.00

---

Quick reference: pIC50 of the listed items.
- MEASUREMENT_TARGET: KRAS WT (Homo sapiens (Human), UniProt P01116+P62937)
- Sequence (P01116 other isoform, or with tags, fused parts or gaps): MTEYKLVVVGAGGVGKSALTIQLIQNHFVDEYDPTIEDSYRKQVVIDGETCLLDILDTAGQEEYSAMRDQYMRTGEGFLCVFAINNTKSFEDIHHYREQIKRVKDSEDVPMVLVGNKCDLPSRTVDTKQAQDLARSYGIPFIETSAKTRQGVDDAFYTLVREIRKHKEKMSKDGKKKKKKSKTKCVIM
- Sequence (P62937 whole entry): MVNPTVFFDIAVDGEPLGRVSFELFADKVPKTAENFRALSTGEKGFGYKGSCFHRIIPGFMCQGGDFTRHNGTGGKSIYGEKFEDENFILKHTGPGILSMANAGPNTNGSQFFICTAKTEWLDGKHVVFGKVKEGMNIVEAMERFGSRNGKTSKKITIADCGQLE
- METHOD_NOTES: Ras-Raf disruption/FRET/MOA assay (BRAF RBD, Cyclophilin A)
- Assay type: biochemical
- TEST_CONTEXT: read-out: KRAS WT FRET data IC50
pIC50: −log10 of the molar value.

See these solved cases before continuing.
>>> measured_value("CCn1c(-c2cccnc2[C@H](C)OC)c2c3cc(ccc31)-c1csc(n1)C[C@H](NC(=O)[C@H](C(C)C)N(C)C(=O)N1CCC13CCS(=O)(=O)CC3)C(=O)N1CCC[C@H](N1)C(=O)OCC(C)(C)C2")
"6.00 to 7.00"
>>> measured_value("CCn1c(-c2cccnc2[C@H](C)OC)c2c3cc(ccc31)-c1csc(n1)C[C@H](NC(=O)[C@H](C(C)C)N(C)C(=O)N1CC(N3CCC3)C1)C(=O)N1CCC[C@H](N1)C(=O)OCC(C)(C)C2")
"6.00 to 7.00"

For the next question, use this compound.
Enquiry: What value of measured pIC50 is listed for `CCn1c(-c2cccnc2[C@H](C)OC)c2c3cc(ccc31)-c1csc(n1)C[C@H](NC(=O)[C@H](C(C)C)N(C)C(=O)N1CC[C@H](O)C1)C(=O)N1CCC[C@H](N1)C(=O)OCC(C)(C)C2` ?
Return: 6.00 to 7.00

---

- MEASUREMENT_TARGET: NRAS Q61R binding to BRAF RBD (Homo sapiens (Human), UniProt P01111+P62937, Q61R)
- Sequence (P01111 whole entry Q61R): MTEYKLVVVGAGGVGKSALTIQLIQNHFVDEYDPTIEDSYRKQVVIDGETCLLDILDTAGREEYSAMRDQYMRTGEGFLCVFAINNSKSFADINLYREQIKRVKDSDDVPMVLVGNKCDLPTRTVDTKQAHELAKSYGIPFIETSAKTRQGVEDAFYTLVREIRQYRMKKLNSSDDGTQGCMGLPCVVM
- Sequence (P62937 whole entry): as the sequence (P62937 whole entry) above
- METHOD_NOTES: Ras-Raf disruption/FRET/MOA assay, NRAS Q61R
Quick reference: IC50 of the listed items.

See these solved cases before continuing.
>>> measured_value("C=CC(=O)N1CC[C@]2(C1)OCN([C@H](C(=O)N[C@H]1Cc3cc(cc(C(F)(F)F)c3)-c3ccc4c(c3)c(c(-c3cccnc3[C@H](C)OC)n4CC)CC(C)(C)COC(=O)[C@@H]3CCCN(N3)C1=O)C(C)C)C2=O")
"1 to 10 µM"
>>> measured_value("CCn1c(-c2cccnc2[C@H](C)OC)c2c3cc(ccc31)-c1csc(n1)C[C@H](NC(=O)[C@H](C(C)C)N(C)C(=O)C1CCN(C(=O)/C=C/CN(C)C)C3(CC3)C1)C(=O)N1CCC[C@H](N1)C(=O)OCC(C)(C)C2 (stereo partly shown)")
"0.1 to 1 µM"
>>> measured_value("CCn1c(-c2cccnc2[C@H](C)OC)c2c3cc(ccc31)N1CCO[C@@H](C[C@H](NC(=O)[C@H](C(C)C)N(C)C(=O)[C@@]3(F)CCN(C(=O)C#CC(C)(C)N4CCC4)C3)C(=O)N3CCC[C@H](N3)C(=O)OCC(C)(C)C2)C1")
"> 10 µM"

For the next question, use this compound.
Enquiry: What value of measured IC50 is listed for C=CC(=O)N1CC[C@H](C(=O)N(C)[C@H](C(=O)N[C@H]2Cc3cccc(c3)-c3ccc4c(c3)c(c(-c3cccnc3[C@H](C)OC)n4CC)CC(C)(C)COC(=O)[C@@H]3CCCN(N3)C2=O)[C@H](C)C(F)(F)F)C1 (atropisomer, axis not shown) ?
Return: 1 to 10 µM

---

- MEASUREMENT_TARGET: K-Ras G12C(GMP-PNP) binding to BRAF RBD (Homo sapiens (Human), UniProt P01116+P62937, G12C)
- Sequence (P01116 other isoform, or with tags, fused parts or gaps G12C): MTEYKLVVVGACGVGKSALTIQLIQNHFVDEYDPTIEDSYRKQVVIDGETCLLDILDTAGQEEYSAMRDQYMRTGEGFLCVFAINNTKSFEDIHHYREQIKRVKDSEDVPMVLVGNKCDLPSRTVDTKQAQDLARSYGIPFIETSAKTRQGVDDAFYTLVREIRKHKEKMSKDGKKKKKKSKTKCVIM
- Sequence (P62937 whole entry): as the sequence (P62937 whole entry) above
- METHOD_NOTES: Disruption of BRAF RBD interaction with K-Ras (FRET / MOA assay), K-Ras G12C
- Format: biochemical
- TEST_CONTEXT: read-out: KRAS G12C FRET IC50
Quick reference: IC50 of the listed items.

See these solved cases before continuing.
>>> measured_value("CCn1c(-c2cccnc2[C@H](C)OC)c2c3cc(ccc31)-c1csc(n1)C[C@H](NC(=O)[C@H](C(C)C)N(C)C(=O)N1CCOC[C@@H]1C)C(=O)N1CCC[C@H](N1)C(=O)OCC(C)(C)C2 [Compound A403]")
"< 10 nM"
>>> measured_value("CCn1c(-c2cc(N3CCN(C)CC3)cnc2[C@H](C)OC)c2c3cc(ccc31)-c1nc(co1)C[C@H](NC(=O)[C@H]1[C@H](C)[C@@H]1C)C(=O)N1CCC[C@H](N1)C(=O)OCC(C)(C)C2 [Compound A391]")
"< 10 nM"
>>> measured_value("CCO[C@@H]1c2nc(cs2)-c2ccc3c(c2)c(c(-c2cc([C@H]4CCN5CCOC[C@@H]5C4)cnc2[C@H](C)OC)n3CC)CC(C)(C)COC(=O)[C@@H]2CCCN(N2)C(=O)[C@H]1NC(=O)[C@H]1[C@H](C)[C@@H]1C [Compound A390]")
"100 to 1000 nM"

Enquiry: What value of measured IC50 is listed for CCn1c(-c2cccnc2[C@H](C)OC)c2c3cc(ccc31)-c1cc(O)cc(c1)C[C@H](NC(=O)[C@H](C(C)C)N(C)C(=O)C13CC(CO1)C3)C(=O)N1CCC[C@H](N1)C(=O)OCC(C)(C)C2 [Compound A406] ?
Return: 100 to 1000 nM

Enquiry: What value of measured IC50 is listed for CCO[C@@H]1c2nc(cs2)-c2ccc3c(c2)c(c(-c2cc(C4CCN(C5COC5)CC4)cnc2[C@H](C)OC)n3CC)CC(C)(C)COC(=O)[C@@H]2CCCN(N2)C(=O)[C@H]1NC(=O)[C@H]1[C@H](C)[C@@H]1C [Compound A449] ?
Return: 100 to 1000 nM

Enquiry: What value of measured IC50 is listed for CCn1c(-c2cccnc2[C@H](C)OC)c2c3cc(ccc31)-c1cc(O)cc(c1)C[C@H](NC(=O)[C@H](C(C)C)N(C)C(=O)C1CNCCNC1)C(=O)N1CCC[C@H](N1)C(=O)OCC(C)(C)C2 [Compound A432] ?
Return: 10 to 100 nM

---

- MEASUREMENT_TARGET: KRAS G12V (Homo sapiens (Human), UniProt P01116+P62937, G12V)
- Sequence (P01116 other isoform, or with tags, fused parts or gaps G12V, one chain of several): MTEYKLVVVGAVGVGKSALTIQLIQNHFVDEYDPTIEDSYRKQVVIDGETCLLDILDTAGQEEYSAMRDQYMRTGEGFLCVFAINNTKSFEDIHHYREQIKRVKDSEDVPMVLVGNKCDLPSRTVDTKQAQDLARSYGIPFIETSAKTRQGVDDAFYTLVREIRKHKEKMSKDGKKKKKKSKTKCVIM
- METHOD_NOTES: Ras-Raf disruption/FRET/MOA assay (BRAF RBD, Cyclophilin A)
- Format: biochemical
- TEST_CONTEXT: read-out: KRAS G12V FRET IC50
pIC50: −log10 of the molar value.
Quick reference: pIC50 of the listed items.

Enquiry: What value of measured pIC50 is listed for `CCn1c(-c2cnccc2COC)c2c3cc(ccc31)-c1cc(O)cc(c1)C[C@H](NC(=O)[C@H](C(C)C)N(C)c1nccs1)C(=O)N1CCC[C@H](N1)C(=O)OCC(C)(C)C2` ?
Return: 5.00 to 6.00

Enquiry: What value of measured pIC50 is listed for `CCn1c(-c2cccnc2[C@H](C)OC)c2c3cc(ccc31)-c1cc(O)cc(c1)C[C@H](NC(=O)[C@H](C(C)C)N(C)C(=O)[C@@H]1OCC[C@@H]1c1ccccc1)C(=O)N1CCC[C@H](N1)C(=O)OCC(C)(C)C2` ?
Return: 7.00 to 8.00

src = patent US20250195521A1
